// provenance: paper PMC10819767

- Assay Target: ADAM10 (Homo sapiens)
- Sequence (O14672 214-748, species assumed): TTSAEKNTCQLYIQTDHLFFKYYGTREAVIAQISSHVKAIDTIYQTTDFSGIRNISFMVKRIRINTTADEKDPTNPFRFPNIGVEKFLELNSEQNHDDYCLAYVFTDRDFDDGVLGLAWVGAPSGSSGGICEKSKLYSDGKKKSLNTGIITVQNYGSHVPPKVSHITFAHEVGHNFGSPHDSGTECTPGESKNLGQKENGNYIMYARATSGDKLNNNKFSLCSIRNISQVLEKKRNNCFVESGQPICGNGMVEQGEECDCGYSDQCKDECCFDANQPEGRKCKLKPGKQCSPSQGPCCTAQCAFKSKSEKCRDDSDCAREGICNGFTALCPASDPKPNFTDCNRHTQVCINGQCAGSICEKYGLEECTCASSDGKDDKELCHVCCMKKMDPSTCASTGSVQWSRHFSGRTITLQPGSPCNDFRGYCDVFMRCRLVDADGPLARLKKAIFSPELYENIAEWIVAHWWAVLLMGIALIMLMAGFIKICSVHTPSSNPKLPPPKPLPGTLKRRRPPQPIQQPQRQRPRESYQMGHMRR
Measured Metric: pIC50
One number for each entry, as −log10 of the molar value.

Request: Could you please provide reported pIC50 for Cc1ccccc1C(=O)NNC(=O)C(=O)Nc1cccc2ccccc12 [CID 2841765] ? Thanks!
Response: 5.55

###

Could you please report measured IC50 for the items listed next?
- Assay Target: ADAM17 (Homo sapiens, UniProt P78536)
- Sequence (P78536 215-824, species assumed): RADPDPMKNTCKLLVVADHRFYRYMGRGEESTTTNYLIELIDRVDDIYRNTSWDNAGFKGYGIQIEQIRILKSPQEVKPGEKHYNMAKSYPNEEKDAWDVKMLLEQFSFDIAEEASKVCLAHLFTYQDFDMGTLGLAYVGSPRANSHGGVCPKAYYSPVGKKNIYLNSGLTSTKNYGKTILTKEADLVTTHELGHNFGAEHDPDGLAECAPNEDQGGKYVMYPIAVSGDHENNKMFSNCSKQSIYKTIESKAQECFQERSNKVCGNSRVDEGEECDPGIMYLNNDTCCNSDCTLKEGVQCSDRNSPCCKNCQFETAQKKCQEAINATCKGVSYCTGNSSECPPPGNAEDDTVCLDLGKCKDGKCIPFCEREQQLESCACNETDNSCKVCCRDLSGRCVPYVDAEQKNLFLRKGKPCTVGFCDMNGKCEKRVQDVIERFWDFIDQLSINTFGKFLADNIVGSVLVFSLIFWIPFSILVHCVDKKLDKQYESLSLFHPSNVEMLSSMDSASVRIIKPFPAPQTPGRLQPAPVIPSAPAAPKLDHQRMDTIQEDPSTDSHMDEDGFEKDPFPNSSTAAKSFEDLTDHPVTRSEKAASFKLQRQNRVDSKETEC

As a guide, the following entries are already answered.
[[record]]
input_smiles = "COc1cccc(C(=O)NNC(=O)C(=O)Nc2ccc(C)c(Cl)c2)c1"
measured_metric = "IC50"
assay_result = "> 100 µM"

[[record]]
input_smiles = "Cc1ccccc1C(=O)NNC(=O)C(=O)Nc1cccc2ccccc12"
measured_metric = "IC50"
assay_result = "2 µM"


We now examine a further compound.
Request: Could you please provide reported IC50 for Cc1c(Cl)cccc1NC(=O)C(=O)NNC(=O)c1ccc(C(C)(C)C)cc1 ? Thanks!
Response: > 100 µM

###

- Assay Notes: Pharmacokinetics in plasma and synovial fluid after oral gavage
- Type: in vivo, Sprague Dawley male rats
- Measurement Parameters: male, Sprague Dawley, rat, synovial fluid, po, 10 mg/kg, synovial fluid (SF), 10 mg/kg oral gavage, read-out: Cmax
Measured Metric: Cmax

Request: Could you please provide reported Cmax for COc1cccc(C(=O)NNC(=O)C(=O)Nc2ccc(C)c(Cl)c2)c1 [CID 3117694] ? Thanks!
Response: 307 ng/mL

###

- Assay Notes: Pharmacokinetics in plasma and synovial fluid after oral gavage
- Type: in vivo, Sprague Dawley male rats
- Measurement Parameters: male, Sprague Dawley, rat, plasma, po, 10 mg/kg, plasma, 10 mg/kg oral, read-out: Cmax in plasma
Measured Metric: Cmax (µM)
Answers are plain numbers, in µM.

Request: Could you please provide reported Cmax for COc1cccc(C(=O)NNC(=O)C(=O)Nc2ccc(C)c(Cl)c2)c1 ? Thanks!
Response: 18.4

###

- Assay Notes: Pharmacokinetics in plasma and synovial fluid after oral gavage
- Assay type: in vivo, Sprague Dawley male rats
- Measurement Parameters: male, Sprague Dawley; plasma; rat; 10 mg/kg oral gavage
Measured Metric: Tmax

Request: Could you please provide reported Tmax for COc1cccc(C(=O)NNC(=O)C(=O)Nc2ccc(C)c(Cl)c2)c1 ? Thanks!
Response: 1 h

###

- Assay Notes: Pharmacokinetics in plasma and synovial fluid after oral gavage
- Format: in vivo, Sprague Dawley male rats
- Measurement Parameters: male, Sprague Dawley, rat, synovial fluid, po, 10 mg/kg, synovial fluid, 10 mg/kg oral, read-out: Cmax in SF
Measured Metric: Cmax (nM)
Answers are plain numbers, in nM.

Request: Could you please provide reported Cmax for COc1cccc(C(=O)NNC(=O)C(=O)Nc2ccc(C)c(Cl)c2)c1 [CID 3117694] ? Thanks!
Response: 849

###

- Assay Notes: Pharmacokinetics in plasma and synovial fluid after oral gavage
- Format: in vivo, Sprague Dawley male rats
- Measurement Parameters: male, Sprague Dawley, rat, plasma, po, 10 mg/kg, plasma, 10 mg/kg oral gavage, read-out: Cmax
Measured Metric: Cmax (ng/mL)
Give bare numbers, in ng/mL.

Request: Could you please provide reported Cmax for COc1cccc(C(=O)NNC(=O)C(=O)Nc2ccc(C)c(Cl)c2)c1 ? Thanks!
Response: 6640

###

- Assay Notes: Pharmacokinetics in plasma and synovial fluid after oral gavage
- Type: in vivo, Sprague Dawley male rats
- Measurement Parameters: male, Sprague Dawley; plasma; rat; 10 mg/kg oral gavage
Measured Metric: AUC(0-inf) (µg·h/mL)
Numbers only, in µg·h/mL.

Request: Could you please provide reported AUC(0-inf) for COc1cccc(C(=O)NNC(=O)C(=O)Nc2ccc(C)c(Cl)c2)c1 [CID 3117694] ? Thanks!
Response: 173

###

- Assay Notes: Pharmacokinetics in plasma and synovial fluid after oral gavage
- Type: in vivo, Sprague Dawley male rats
- Measurement Parameters: male, Sprague Dawley; plasma; rat; 10 mg/kg oral gavage
Measured Metric: AUC(0-t) (ng·h/mL)
Answers are plain numbers, in ng·h/mL.

Request: Could you please provide reported AUC(0-t) for COc1cccc(C(=O)NNC(=O)C(=O)Nc2ccc(C)c(Cl)c2)c1 ? Thanks!
Response: 33100
